System: SF-295 CNS
Assay: NCI tumour cell line growth inhibition, 48 h
attributeMeasured: TGI

Some entries whose results are on file:
INSERT INTO results (molecule, targetofassay, attributemeasured, reportedresult) VALUES
  ('O=C1NC2OC(CO)C(O)C(O1)C2O (stereo unspecified)', 'SF-295 CNS', 'TGI', '> 100 µM'),
  ('NC(=O)c1cc2ccccc2o/c1=N/O', 'SF-295 CNS', 'TGI', '> 100 µM'),
  ('CC(=O)OC[C@]1(C)C=C2C(=O)[C@](C)(O)C3(CC3)C(C)=C2[C@H]1O', 'SF-295 CNS', 'TGI', '1.56 µM');

Request: Return the recorded TGI value; entry: Brc1cccc(N=NN2CCCC2)c1
Result: > 100 µM

Request: Return the recorded TGI value; entry: CN1C(=O)C2(Cc3cn(C45CC67SSC(CO)(C(=O)N6C4Nc4ccccc45)N(C)C7=O)c4ccccc34)SSC1(CO)C(=O)N2C (stereo unspecified)
Result: 1.34 µM

Request: Return the recorded TGI value; entry: COC(=O)C1Cc2c(n(Cc3ccccc3)c3ccccc23)C(CCC(=O)O)N1C(C)C (stereo unspecified)
Result: > 100 µM

###

The entries below come with measured TGI values attached.
Tested on: RPMI-8226 leukemia
Test: NCI tumour cell line growth inhibition, 48 h

Some entries whose results are on file:
INSERT INTO measurements (compound, reportedresult) VALUES
  ('CCCCc1ccc(Nc2nc3c(ncn3COCCO)c(=O)[nH]2)cc1', '> 100 µM'),
  ('O=C1C2c3[nH]c4ccccc4c3C3CCCCCCC3C2C(=O)N1c1ccccc1 (stereo not drawn)', '68.3 µM'),
  ('CN(C)S(=O)(=O)Nc1nnc(S(N)(=O)=O)s1', '> 100 µM'),
  ('CCOc1cc(-c2nc3ccccn3c2/N=C/c2cc(Br)ccc2O)ccc1O', '> 100 µM'),
  ('Nc1cc(N)c2nc(-c3ccccc3)c(Nc3ccc(Cl)c(Cl)c3)nc2c1', '4.92 µM');

Request: Return the recorded TGI value; entry: O=C1NC2OC(CO)C(O)C(O1)C2O (stereo not drawn)
Result: > 100 µM

Request: Return the recorded TGI value; entry: Cc1cccc(C)c1NC(=O)C(=O)C1C(=O)NC(=O)NC1=O
Result: > 100 µM

Request: Return the recorded TGI value; entry: O=c1[nH]ncc(Br)c1Br
Result: 6.18 µM

Request: Return the recorded TGI value; entry: COc1ccc2c(c1)CN1C(=N2)CSC1c1ccccc1Cl (stereo not drawn)
Result: 29.9 µM

Request: Return the recorded TGI value; entry: COc1ccc(NC2=CC(=O)C(=O)c3ccccc32)nn1
Result: 5.34 µM

Request: Return the recorded TGI value; entry: O=C1CCC2(c3ccc(F)cc3)Nc3cc(Cl)ccc3N12 (stereo not drawn)
Result: > 100 µM

Request: Return the recorded TGI value; entry: C[C@]12CC[C@H]3[C@@H](CC=C4C[C@@H](O)CC[C@@]43C)[C@@H]1CC[C@@H]2N(CCO)CCO
Result: > 100 µM

Request: Return the recorded TGI value; entry: O/N=C/C1c2ccccc2-c2ccccc21
Result: 52.8 µM

###

Tested on: IGROV1 ovarian
Assay: NCI tumour cell line growth inhibition, 48 h
The entries below come with measured TGI values attached.

INSERT INTO assay_data (compound, attributemeasured, reportedresult) VALUES
  ('COc1ccc(Nc2nc3c([nH]2)c(=O)n(C)c(=O)n3C)cc1', 'TGI', '> 10 µM');

Continue with the next compound.
Request: Return the recorded TGI value; entry: C[C@]12CC[C@H]3[C@@H](CC=C4C[C@@H](O)CC[C@@]43C)[C@@H]1CC[C@@H]2N(CCO)CCO
Result: > 100 µM

###

System: OVCAR-5 ovarian
Assay: NCI tumour cell line growth inhibition, 48 h
attributeMeasured: GI50

Some entries whose results are on file:
INSERT INTO results (compound, reportedresult) VALUES
  ('CN1CCN(C(=O)OCc2nc3c(N4CCOCC4)nc(Cl)nc3n2C)CC1', '1.6 µM'),
  ('O=C(/C(Br)=C/c1ccccc1)c1ccccc1', '3.21 µM');

Request: Return the recorded GI50 value; entry: O=C(N/N=C/c1ccccc1O)c1ccccc1Nc1ccnc(C(F)(F)F)c1
Result: 4.34 µM

###

Tested on: MALME-3M melanoma
Experiment: NCI tumour cell line growth inhibition, 48 h; in the data active means GI50 below about 0.43 µM; inactive means the rest
Hello, when you answer, please use one of the following outcomes: active, inactive

Example entries begin here.
INSERT INTO measurements (smilesinput, targetofassay, classassignment) VALUES
  ('CCN(CC)c1ccc(/C=C/c2ccc3cc(C)ccc3[n+]2CC)cc1', 'MALME-3M melanoma', 'active'),
  ('FC(F)(F)c1cccc(Nc2nccc(-c3cnn4nc(-c5ccccc5)ccc34)n2)c1', 'MALME-3M melanoma', 'inactive'),
  ('CCCn1cnc2c(SCc3ccccc3Cl)nc(N)nc21', 'MALME-3M melanoma', 'inactive'),
  ('NC(=O)c1ccc(I)c(N)c1', 'MALME-3M melanoma', 'inactive');

Consider the record given below.
Request: Hi, do you know how N#Cc1c(-c2ccc(F)cc2)nc(N/N=C/c2c[nH]c3ccccc23)nc1N1CCOCC1 came out in this test?
Result: inactive

###

System: KM12 colon
Experiment: NCI tumour cell line growth inhibition, 48 h
attributeMeasured: TGI

INSERT INTO results (compound, reportedresult) VALUES
  ('N#Cc1c(-c2ccc(F)cc2)nc(N/N=C/c2c[nH]c3ccccc23)nc1N1CCOCC1', '68.9 µM'),
  ('Cc1nc(C)c(Cc2ccccc2)o1', '> 100 µM'),
  ('O=C1C=C(c2ccccc2)O/C1=C/C(=O)c1ccc(Cl)cc1', '36.7 µM'),
  ('COC(=O)[C@]12CC[C@@H](C)[C@H](C)[C@@H]1C1=CC[C@@H]3[C@@]4(C)C/C(=N\O)[C@H](O)[C@@]5(C)COC(=C45)C[C@@]3(C)[C@]1(C)CC2', '20.2 µM');

Request: Return the recorded TGI value; entry: N#Cc1cc([N+](=O)[O-])ccc1NC(=O)C(=O)Nc1n[nH]c(N)n1
Result: > 100 µM

Request: Return the recorded TGI value; entry: CCC(C)c1c(Cl)nc(Cl)nc1Cl (stereo unspecified)
Result: 10.6 µM

###

Tested on: OVCAR-3 ovarian
Test: NCI tumour cell line growth inhibition, 48 h
The entries below come with measured GI50 values attached.

Some entries whose results are on file:
INSERT INTO assay_data (smilesinput, attributemeasured, reportedresult) VALUES
  ('C=CC(=O)N1CC2(CCN(c3nc(OC4CCN(CCCOC)CC4)nc4c(OCC(F)(F)F)c(-c5c(C)ccc6[nH]ncc56)c(C5CC5)cc34)CC2)C1', 'GI50', '2370 nM'),
  ('N#Cc1ccc(NC(=O)Nc2ccc(Oc3ccc(NC(=O)Nc4ccc(C#N)cc4)cc3)cc2)cc1', 'GI50', '19400 nM'),
  ('CCC[CH2][Sn]([CH2]CCC)([O]C(=O)c1cccnc1SC)[O]C(=O)c1cccnc1SC', 'GI50', '1330 nM');

Continue with the next compound.
Request: Give measured GI50 for O=c1/c(=C/c2ccco2)sc2nc3ccccc3n12 (OVCAR-3 ovarian).
Result: > 100000 nM

###

Tested on: LOX IMVI melanoma
Test: NCI tumour cell line growth inhibition, 48 h; in the data active means GI50 below about 0.43 µM; inactive means the rest
Hello, when you answer, please use one of the following outcomes: true (1) for active, false (0) for inactive

INSERT INTO measurements (molecule, classassignment) VALUES
  ('CCCn1cnc2c(SCc3ccccc3Cl)nc(N)nc21', 'false (0)'),
  ('NC(=O)c1ccc(I)c(N)c1', 'false (0)'),
  ('Oc1ccc2ccccc2c1N=Nc1nccs1', 'true (1)'),
  ('OCc1c[nH]c2ccccc12', 'false (0)'),
  ('COc1cc(C2=C(c3ccccc3)COC2=O)cc(OC)c1OC', 'false (0)');

Request: Hi, do you know how COc1cc(C2NC(=O)c3ccccc3N2)ccc1OCCCCCOc1c(OC)cc(C2=NOC(c3cc(OC)c(OC)c(OC)c3)C2)cc1OC (configuration not stated) came out in this test?
Result: false (0)

Request: Hi, do you know how Nc1nc(Cl)c2ncn(Cc3ccc(C45CC6CC(CC(C6)C4)C5)c(O)c3)c2n1 came out in this test?
Result: false (0)

Request: Hi, do you know how O=C(/C(Br)=C/c1ccccc1)c1ccccc1 came out in this test?
Result: false (0)

Request: Hi, do you know how C=CCCCCCCCCC(=O)[O][Sn]([CH2]CCC)([CH2]CCC)[CH2]CCC came out in this test?
Result: true (1)

Request: Hi, do you know how O=c1[nH]ncc(Br)c1Br came out in this test?
Result: false (0)

Request: Hi, do you know how FC(F)(F)c1cccc(Nc2nccc(-c3cnn4nc(-c5ccccc5)ccc34)n2)c1 came out in this test?
Result: false (0)

Request: Hi, do you know how CCC[CH2][Sn]1([CH2]CCC)[O]Cc2nc(C)ccc2[O]1 came out in this test?
Result: false (0)

Request: Hi, do you know how Oc1c(CN2CCC(N3CCCCC3)CC2)cc(Cc2cc(CN3CCC(N4CCCCC4)CC3)c(O)c3ncccc23)c2cccnc12 came out in this test?
Result: false (0)
